Source: ChEMBL document CHEMBL3228028

# EXPERIMENTAL TARGET: UniProt P00469
# Sequence (P00469 whole entry): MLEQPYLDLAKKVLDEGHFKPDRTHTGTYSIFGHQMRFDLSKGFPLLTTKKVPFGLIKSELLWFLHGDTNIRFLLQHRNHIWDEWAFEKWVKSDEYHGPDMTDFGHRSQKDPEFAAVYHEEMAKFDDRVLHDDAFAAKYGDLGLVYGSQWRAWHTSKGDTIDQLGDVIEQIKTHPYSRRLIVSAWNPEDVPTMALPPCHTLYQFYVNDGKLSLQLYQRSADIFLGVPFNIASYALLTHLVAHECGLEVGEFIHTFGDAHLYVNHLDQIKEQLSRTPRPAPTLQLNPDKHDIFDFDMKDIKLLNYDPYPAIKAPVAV
# PROTOCOL NOTES: Competitive inhibition of Lactobacillus casei thymidylate synthetase using 2'-deoxy[5-3H]uridine-5'-phosphate as substrate assessed as release of water after 15 mins by double reciprocal plot analysis
# Parameters: species or system Lacticaseibacillus casei
# Ki per record follows
Express it in µM; write the number only.

CC1CN([C@H]2C[C@H](O)[C@@H](COP(=O)(O)O)O2)C(=O)NC1=O (some centres not stated) | 150

Attention now shifts to the item below.
Exercise: Enter Ki (test system UniProt P00469) for O=C1CCN([C@H]2C[C@H](O)[C@@H](COP(=O)(O)O)O2)C(=O)N1
Key: 100
